These measurements were taken from patent US20240101572A1.

target: UniProt O14939; assay: Evaluation of human PLD2 enzyme inhibitory activity (Amplex Red / choline oxidase fluorescence); assay type: biochemical; details: full-length human PLD2 enzyme; read-out: PLD2 IC50
Sequence (O14939 whole entry): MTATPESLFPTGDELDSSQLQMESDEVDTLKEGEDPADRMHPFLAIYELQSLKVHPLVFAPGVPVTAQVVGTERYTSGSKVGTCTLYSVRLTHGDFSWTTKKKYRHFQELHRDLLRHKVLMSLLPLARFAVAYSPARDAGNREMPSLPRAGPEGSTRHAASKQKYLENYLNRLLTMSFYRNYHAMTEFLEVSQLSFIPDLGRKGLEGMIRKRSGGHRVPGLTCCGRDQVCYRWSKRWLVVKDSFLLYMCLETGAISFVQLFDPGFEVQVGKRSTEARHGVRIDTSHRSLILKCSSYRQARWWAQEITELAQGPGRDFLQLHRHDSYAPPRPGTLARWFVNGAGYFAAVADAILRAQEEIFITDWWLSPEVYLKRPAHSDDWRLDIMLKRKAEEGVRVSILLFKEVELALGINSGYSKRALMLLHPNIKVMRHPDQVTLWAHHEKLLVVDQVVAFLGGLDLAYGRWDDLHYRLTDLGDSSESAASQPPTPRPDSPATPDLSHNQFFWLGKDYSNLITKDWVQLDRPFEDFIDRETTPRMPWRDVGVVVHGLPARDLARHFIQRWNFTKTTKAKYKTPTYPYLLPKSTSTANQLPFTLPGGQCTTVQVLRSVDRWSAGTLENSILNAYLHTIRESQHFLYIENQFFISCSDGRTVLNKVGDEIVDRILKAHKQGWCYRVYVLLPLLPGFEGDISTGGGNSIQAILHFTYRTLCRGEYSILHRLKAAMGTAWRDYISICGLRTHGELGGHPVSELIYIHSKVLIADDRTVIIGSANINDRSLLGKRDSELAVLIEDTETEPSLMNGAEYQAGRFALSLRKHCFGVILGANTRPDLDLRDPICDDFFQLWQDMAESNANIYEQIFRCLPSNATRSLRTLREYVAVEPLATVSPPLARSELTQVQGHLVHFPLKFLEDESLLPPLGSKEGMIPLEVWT
IC50 less than 40 nM is true; IC50 greater than or equal to 40 nM is false.

Prompt: Could you please tell me whether IC50 recorded for C[C@@H](C[C@H]1CC[C@]2(CC1)OC(=O)NN=C2c1cc(C(C)(C)O)ccc1Br)NC(=O)c1cnn(C)c1 is less than 40 nM?
Response: true

Prompt: // same read-out, input: Cc1cc(C(=O)N[C@@H](C)CN2CC[C@]3(C[C@@H]2C)OC(=O)NN=C3c2ccc(C#N)cc2Cl)[nH]n1
Response: false

Prompt: Here is the next compound: CNC(=O)C(=O)N[C@@H](C)C[C@H]1CC[C@]2(CC1)OC(=O)NN=C2c1ccc(S(C)(=O)=O)cc1
Response: false

Prompt: Item: C[C@@H](C[C@H]1CC[C@]2(CC1)OC(=O)NN=C2c1cc(C#N)ccc1Br)NC(=O)c1ccn(C)n1
Response: true

Prompt: What do we get for Cc1cc(C(=O)N[C@@H](C)C[C@H]2CC[C@]3(CC2)OC(=O)NN=C3c2cnc(N3CC4CCC(C3)O4)cc2C)[nH]n1 ?
Response: true

Prompt: Queued: CNC(=O)C(=O)N[C@@H](C)C[C@H]1CC[C@]2(CC1)OC(=O)NN=C2c1cnc(N2C[C@@H]3C[C@H]2CO3)cc1C
Response: true

Prompt: Item: CNC(=O)C(=O)N[C@@H](C)C[C@H]1CC[C@]2(CC1)OC(=O)NN=C2c1cnc(N2CCCCC2)cc1C
Response: true

Prompt: For Cc1cccnc1C1=NNC(=O)O[C@]12CC[C@@H](C[C@H](C)NC(=O)c1cc(Cl)no1)CC2 then?
Response: true

Prompt: Next record, please: C[C@@H](CN1CCC2(CC1)OC(=O)NN=C2c1cc(C#N)ccc1Br)NC(=O)CCC(F)(F)F
Response: false

Prompt: Another: CNC(=O)C(=O)N[C@@H](C)C[C@H]1CC[C@]2(CC1)OC(=O)NN=C2c1ccc(F)cc1C
Response: true

Prompt: Likewise for CNC(=O)C(=O)N[C@@H](C)C[C@H]1CC[C@]2(CC1)OC(=O)NN=C2c1ccccc1SC(F)(F)F ?
Response: true

Prompt: Here is the next compound: Cc1cc(C(=O)N[C@@H](C)CN2CCC3(CC2)OC(=O)NN=C3c2cc(C#N)ccc2Cl)[nH]n1
Response: true

Prompt: Then this compound: CNC(=O)C(=O)N[C@@H](C)C[C@H]1CC[C@]2(CC1)OC(=O)NN=C2c1cnc(N2C[C@H]3C[C@@H]2CO3)cc1Cl
Response: true

Prompt: One more compound: Cc1cc(C(=O)N[C@@H](C)C[C@H]2CC[C@]3(CC2)OC(=O)NN=C3c2cnc(N3CCC(F)(F)C3)cc2Cl)[nH]n1
Response: true

Prompt: Follow-up entry: C[C@@H](C[C@H]1CC[C@]2(CC1)OC(=O)NN=C2c1ccc(F)cc1Br)NC(=O)C1CC1
Response: false

Prompt: Same question, Cc1cc(C(=O)N[C@@H](C)C[C@H]2CC[C@]3(CC2)OC(=O)NN=C3c2cccc(Br)c2)[nH]n1 this time
Response: false

Prompt: Thanks! And C=C(OCC)c1ccc(C2=NNC(=O)O[C@]23CC[C@@H](C[C@H](C)NC(=O)C(=O)NC)CC3)c(C)c1 ?
Response: true

Prompt: Also Cc1cc(C(=O)N[C@@H](C)C[C@H]2CC[C@]3(CC2)OC(=O)NN=C3c2cnc(N3C[C@@H]4C[C@H]3CO4)cc2Cl)[nH]n1 ?
Response: true

Prompt: CNC(=O)C(=O)N[C@@H](C)C[C@H]1CC[C@]2(CC1)OC(=O)NN=C2c1ccc(F)cc1CCC(F)(F)F , same question.
Response: true

Prompt: Try this compound too: Cc1cc(C(=O)NC[C@@H](C)N2CCC3(CC2)OC(=O)NN=C3c2ccc(C#N)cc2Br)[nH]n1
Response: true

Prompt: Now the compound C[C@@H](C[C@H]1CC[C@]2(CC1)OC(=O)NN=C2c1cn(C)nc1I)NC(=O)c1cc(Cl)no1
Response: false
